Measured kon, listed per entry for reference.
assaySystem: T1, soluble Homo sapiens CD131 comprising a C-terminal 6xHis tag (human, UniProt P32927 17-438)
T1 construct: truncated after Ser438, C-terminal 6xHis; also called shCD131; shβc
T1 sequence: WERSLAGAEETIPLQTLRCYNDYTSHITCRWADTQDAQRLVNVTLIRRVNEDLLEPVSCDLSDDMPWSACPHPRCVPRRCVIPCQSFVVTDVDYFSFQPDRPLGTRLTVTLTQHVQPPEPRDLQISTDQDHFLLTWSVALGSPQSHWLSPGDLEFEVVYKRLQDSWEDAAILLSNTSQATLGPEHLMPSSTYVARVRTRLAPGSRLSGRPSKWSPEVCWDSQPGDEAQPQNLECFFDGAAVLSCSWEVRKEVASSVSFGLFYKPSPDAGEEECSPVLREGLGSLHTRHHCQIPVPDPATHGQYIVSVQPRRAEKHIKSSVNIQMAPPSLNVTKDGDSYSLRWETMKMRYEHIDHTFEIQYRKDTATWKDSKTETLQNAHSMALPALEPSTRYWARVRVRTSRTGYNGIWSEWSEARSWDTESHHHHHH
assayOverview: SPR, Fab over captured shCD131
// return numeric value only (unit: M⁻¹ s⁻¹, not printed)

9A2-VR24.10 Fab (Fab, V domains shown, recombinant Fab) VH: EVQLLESGGGLVQPGGSLRLSCAASGFTFPWYRVHWVRQAPGKGLEWVSSIHTGSQWTYYADSVKGRFTISRDNSKNTLYLQMNSLRAEDTAVYYCARFYDSFFDIWGQGTMVTVSS VL: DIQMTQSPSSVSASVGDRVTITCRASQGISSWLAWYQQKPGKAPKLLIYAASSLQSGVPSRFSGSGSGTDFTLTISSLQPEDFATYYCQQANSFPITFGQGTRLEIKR = 1.48e+06

Let us move to another entry and its kon.
The reported kon of the binder 9A2-VR39.01 Fab (Fab, V domains shown, recombinant Fab) VH: EVQLLESGGGLVQPGGSLRLSCAASGFTFFWFHHVWVRQAPGKGLEWVSSINGRGRVTYYADSVKGRFTISRDNSKNTLYLQMNSLRAEDTAVYYCARFYDSFFDIWGQGTMVTVSS VL: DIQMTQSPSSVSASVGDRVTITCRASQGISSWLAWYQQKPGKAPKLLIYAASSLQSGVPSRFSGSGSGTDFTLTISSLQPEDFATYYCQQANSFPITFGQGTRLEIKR was 3.04e+06
